Every entry's value here was drawn from the COVID Moonshot data (paper PMC11187573).

Items are presented alongside their recorded inhibition.
# target entity: UniProt:P0DTD1
# assay conditions: 20.0 µM
// return the numeric value with its unit appended

O=C(CCc1cnn[nH]1)NC(Cn1cccn1)c1ccccc1 (stereo not drawn) | 0%
C=CC(=O)NCc1ccc(C(C)NC(=O)OC(C)(C)C)cc1 (stereo not drawn) | 0%

Please report the measured inhibition for CC(=O)N1CCN(Cc2cn(-c3cccc(S(N)(=O)=O)c3)nn2)CC1
2.3%

Please report the measured inhibition for O=C(Cn1cccn1)N1CCN(S(=O)(=O)c2cccc(F)c2)CC1
0%

Please report the measured inhibition for O=C(Nc1cnccc1Cl)c1cc(Cl)ccc1O
15.5%

Please report the measured inhibition for C=CC(=O)N(c1ccc(C(C)(C)C)cc1)C(C(=O)Nc1ccc(OC)cc1OC)c1cccnc1 (stereo not drawn)
5.03%

Please report the measured inhibition for C[C@H](NC(=O)[C@@H](C)c1ccc(F)c(F)c1)c1cccc(F)c1 (stereo in doubt)
0%

====

# target entity: SARS-CoV-2 Main Protease (SARS-CoV-2)
# assay conditions: 20.0 µM
assay metric: inhibition (%)
Give the number; % is assumed, so skip it.

Consider the worked cases shown below.
CC(c1cccc(NC(=O)Cc2cnccc2Cl)c1)N1CCOCC1 (stereo not given) | 2.12
Cc1cc(CC(=O)Nc2cnccc2C)[nH]n1 | -4.28
Cc1ccncc1NC(=O)C(C)CC1CC1 (stereo not given) | -2.37
O=C(Nc1cccc(C(=O)N2CCSCC2)c1)C(F)Cl (stereo not given) | -13.8
Cc1cccc(COC(=O)c2cccc3c2NC(=O)C3=O)c1 | -1.1

Please report the measured inhibition for C=CC(=O)N1CCN(S(C)(=O)=O)CC1c1ccccc1 (stereo not given)
-0.438

Please report the measured inhibition for COc1ccc(NC(=O)Nc2cn(C)c(=O)c3ccccc23)c(OC)c1
7.06

Please report the measured inhibition for Cc1cccc(NC(=O)Cn2cncc2C)n1
-1.3

Please report the measured inhibition for CCOc1ccccc1CN1C(=O)C(=O)c2cc(Br)ccc21
0.566

Please report the measured inhibition for Cc1ccncc1NC(=O)CCOC1CC1
8.26

Please report the measured inhibition for C=CC(=O)N(c1ccc(C(C)OC)cc1)C(C(=O)Nc1cccc(CC)c1)c1cccnc1 (stereo not given)
36.6

Please report the measured inhibition for CC1CN(Cc2cccc(Cl)c2)CCN1C(=O)CCl (stereo not given)
88.3

Please report the measured inhibition for CN(C)C(=O)c1cc2cnc(Nc3ccc(N4CCNCC4)cn3)nc2n1C1CCCC1
-3.84

Please report the measured inhibition for Cc1cccc(C2CN(C(=O)CCl)Cc3ccccc32)c1 (stereo not given)
98.1

Please report the measured inhibition for Cc1nn(-c2ccccc2)c(Nc2cccc(C(F)(F)F)c2)c1NS(C)(=O)=O
3.18

Please report the measured inhibition for O=S(=O)(Cc1nc(-c2ccncc2)no1)Nc1ccc(N2CCCCC2)cc1
3.34

Please report the measured inhibition for COc1ccc2c(c1F)NC(=O)C2=O
-1.15

Please report the measured inhibition for O=C(Cn1cccn1)N1CCN(S(=O)(=O)c2cccc(F)c2)CC1
-11.9

Please report the measured inhibition for C=CC(=O)N(c1ccc(C(C)(C)C)cc1)C(C(=O)Nc1ccccc1OC)c1cccnc1 (stereo not given)
26.3

Please report the measured inhibition for CN(C)C/C=C/C(=O)Nc1c[nH]c2ccccc12
5.8

Please report the measured inhibition for Nc1n[nH]c2cc(O)nc(O)c12
6.14
